In this section, each of the compounds is paired with its reported ALT.
Species on record: Rattus norvegicus
Test: Open TG-GATES - Regimen: Single
Assay type: toxicity, organism-based, Sprague-Dawley
Design: regimen Single, gender Male, age 6 weeks
Settings: in vivo, po, 0 mg/kg, 3 h, tissue Plasma, route gavage, dose level Control
Lab book: enter the figure in IU/L, no units written.

>>> result_value("C#C[C@]1(O)CC[C@H]2[C@@H]3CCc4cc(O)ccc4[C@H]3CC[C@@]21C")
44
>>> result_value("CCC(C)(C)C(=O)O[C@H]1C[C@@H](C)C=C2C=C[C@H](C)[C@H](CC[C@@H]3C[C@@H](O)CC(=O)O3)[C@H]21")
35.4
>>> result_value("CN1C(=O)OC(C)(C)C1=O")
43.8
>>> result_value("Oc1ncnc2[nH]ncc12")
30.8
>>> result_value("CC(C)(S)[C@@H](N)C(=O)O")
42.2

Give the reported ALT for this compound. CCN1CCCC1CNC(=O)c1cc(S(N)(=O)=O)ccc1OC (stereo not given) [SULPIRIDE]
49

Give the reported ALT for this compound. Nc1nc(N)c2nc(-c3ccccc3)c(N)nc2n1
44.2

Give the reported ALT for this compound. O=C(O)c1cccnc1
44.8

Give the reported ALT for this compound. C[C@]12CCC(=O)C=C1CC[C@@H]1[C@@H]2CC[C@@]2(C)[C@H]1CC[C@]2(C)O
45.4

Give the reported ALT for this compound. CC(=N)S [THIOACETAMIDE]
34.4

---

Organism: Rattus norvegicus
Experiment: Open TG-GATES - Regimen: Daily Repeat
Assay type: toxicity, organism-based, Sprague-Dawley
Parameters: regimen Daily Repeat, gender Male, age 6 weeks
Settings: in vivo, po, 0 mg/kg, […], tissue Plasma, route gavage, dose level Control, time 28 day
measured_property: GLC (mg/dL)
Lab book: enter the figure in mg/dL, no units written.

Give the reported GLC for this compound. CCSCC[C@H](N)C(=O)O
233

---

Organism: Rattus norvegicus
Assay: Open TG-GATES - Regimen: Daily Repeat
Format: toxicity, organism-based, Sprague-Dawley
Design: regimen Daily Repeat, gender Male, age 6 weeks
Settings: in vivo, po, 300 mg/kg, […], tissue Blood, route gavage, dose level Middle, time 28 day
In this section, each of the molecules is paired with its reported Ret.
Lab book: enter the figure in %, no units written.

>>> result_value("O=C(O)c1cccnc1 [NIACIN]")
2.6
>>> result_value("CCN1CCCC1CNC(=O)c1cc(S(N)(=O)=O)ccc1OC (centres undefined) [SULPIRIDE]")
2.1
>>> result_value("CC(C)(S)[C@@H](N)C(=O)O [PENICILLAMINE]")
3.1

Give the reported Ret for this molecule. O=C(N[C@H](CO)[C@H](O)c1ccc([N+](=O)[O-])cc1)C(Cl)Cl [CHLORAMPHENICOL]
2.1

---

Species: Rattus norvegicus
Assay: Open TG-GATES - Regimen: Daily Repeat
Format: toxicity, organism-based, Sprague-Dawley
Parameters: regimen Daily Repeat, gender Male, age 6 weeks
Details: in vivo, po, 1000 mg/kg, […], tissue Plasma, route gavage, dose level High, time 7 day
In this section, each of the molecules is paired with its reported PL.

Some solved entries appear below for comparison.
>>> result_value("O=C(O)c1cccnc1 [NIACIN]")
"142.4 mg/dL"
>>> result_value("CC(C)(S)[C@@H](N)C(=O)O [PENICILLAMINE]")
"156.4 mg/dL"
>>> result_value("O=C(N[C@H](CO)[C@H](O)c1ccc([N+](=O)[O-])cc1)C(Cl)Cl [CHLORAMPHENICOL]")
"136.2 mg/dL"

Give the reported PL for this molecule. CCN1CCCC1CNC(=O)c1cc(S(N)(=O)=O)ccc1OC (centres undefined) [SULPIRIDE]
146 mg/dL

---

Species on record: Rattus norvegicus
Assay: Open TG-GATES - Regimen: Daily Repeat
Type: toxicity, organism-based, Sprague-Dawley
Design: regimen Daily Repeat, gender Male, age 6 weeks
Details: in vivo, po, 0 mg/kg, […], tissue Blood, route gavage, dose level Control, time 7 day
In this section, each of the compounds is paired with its reported Ret.
Lab book: enter the figure in %, no units written.

>>> result_value("CC(=N)S [THIOACETAMIDE]")
5.3
>>> result_value("Nc1nc(N)c2nc(-c3ccccc3)c(N)nc2n1")
5.9

Give the reported Ret for this compound. CCSCC[C@H](N)C(=O)O [ETHIONINE]
5.6

Give the reported Ret for this compound. CCC(C)(C)C(=O)O[C@H]1C[C@@H](C)C=C2C=C[C@H](C)[C@H](CC[C@@H]3C[C@@H](O)CC(=O)O3)[C@H]21 [SIMVASTATIN]
3.8

Give the reported Ret for this compound. CC(C)C(=O)Nc1ccc([N+](=O)[O-])c(C(F)(F)F)c1 [FLUTAMIDE]
4.9

---

Organism: Rattus norvegicus
Test: Open TG-GATES - Regimen: Single
Assay type: toxicity, organism-based, Sprague-Dawley
Set-up: regimen Single, gender Male, age 6 weeks
Conditions: in vivo, po, 0 mg/kg, 3 h, tissue Plasma, route gavage, dose level Control
In this section, each of the compounds is paired with its reported TBIL.
Lab book: enter the figure in mg/dL, no units written.

Some solved entries appear below for comparison.
>>> result_value("CCSCC[C@H](N)C(=O)O")
0.1
>>> result_value("CCc1oc2ccccc2c1C(=O)c1cc(I)c(O)c(I)c1")
0.3

Give the reported TBIL for this compound. CCN1CCCC1CNC(=O)c1cc(S(N)(=O)=O)ccc1OC (stereo not given) [SULPIRIDE]
0.074

Give the reported TBIL for this compound. CN1C(=O)OC(C)(C)C1=O
0.07

Give the reported TBIL for this compound. O=C(N[C@H](CO)[C@H](O)c1ccc([N+](=O)[O-])cc1)C(Cl)Cl
0.062

---

Organism: Rattus norvegicus
Experiment: Open TG-GATES - Regimen: Daily Repeat
Type: toxicity, organism-based, Sprague-Dawley
Parameters: regimen Daily Repeat, gender Male, age 6 weeks
Conditions: in vivo, po, 1000 mg/kg, […], tissue Plasma, route gavage, dose level High, time 14 day
In this section, each of the compounds is paired with its reported AST.
Lab book: enter the figure in IU/L, no units written.

Some solved entries appear below for comparison.
>>> result_value("CCN1CCCC1CNC(=O)c1cc(S(N)(=O)=O)ccc1OC (centres undefined) [SULPIRIDE]")
68.2
>>> result_value("O=C(O)c1cccnc1")
86.8
>>> result_value("CC(C)(S)[C@@H](N)C(=O)O")
52.4

Give the reported AST for this compound. O=C(N[C@H](CO)[C@H](O)c1ccc([N+](=O)[O-])cc1)C(Cl)Cl
72.6

---

Species: Rattus norvegicus
Assay: Open TG-GATES - Regimen: Daily Repeat
Assay type: toxicity, organism-based, Sprague-Dawley
Design: regimen Daily Repeat, gender Male, age 6 weeks
Conditions: in vivo, po, 0 mg/kg, […], tissue Plasma, route gavage, dose level Control, time 28 day
measured_property: IP (mg/dL)
Lab book: enter the figure in mg/dL, no units written.

Some solved entries appear below for comparison.
>>> result_value("Oc1ncnc2[nH]ncc12")
6.5
>>> result_value("CC(C)C(=O)Nc1ccc([N+](=O)[O-])c(C(F)(F)F)c1 [FLUTAMIDE]")
7
>>> result_value("C#C[C@]1(O)CC[C@H]2[C@@H]3CCc4cc(O)ccc4[C@H]3CC[C@@]21C")
6.1
>>> result_value("CCc1oc2ccccc2c1C(=O)c1cc(I)c(O)c(I)c1")
5.7
>>> result_value("CCN1CCCC1CNC(=O)c1cc(S(N)(=O)=O)ccc1OC (stereo not given) [SULPIRIDE]")
6.8

Here is another compound to look at.
Give the reported IP for this compound. O=C(O)c1cccnc1
6.9

---

Organism: Rattus norvegicus
Test: Open TG-GATES - Regimen: Daily Repeat
Format: toxicity, organism-based, Sprague-Dawley
Parameters: regimen Daily Repeat, gender Male, age 6 weeks
Conditions: in vivo, po, 100 mg/kg, […], tissue Blood, route gavage, dose level Low, time 28 day
measured_property: Hb

Some solved entries appear below for comparison.
>>> result_value("O=C(N[C@H](CO)[C@H](O)c1ccc([N+](=O)[O-])cc1)C(Cl)Cl [CHLORAMPHENICOL]")
"14.9 g/dL"
>>> result_value("CC(C)(S)[C@@H](N)C(=O)O [PENICILLAMINE]")
"16.2 g/dL"

Give the reported Hb for this compound. O=C(O)c1cccnc1 [NIACIN]
15.2 g/dL

Give the reported Hb for this compound. CCN1CCCC1CNC(=O)c1cc(S(N)(=O)=O)ccc1OC (centres undefined) [SULPIRIDE]
16 g/dL

---

In this section, each of the molecules is paired with its reported Ht.
Species on record: Rattus norvegicus
Test: Open TG-GATES - Regimen: Daily Repeat
Type: toxicity, organism-based, Sprague-Dawley
Parameters: regimen Daily Repeat, gender Male, age 6 weeks
Settings: in vivo, po, 300 mg/kg, […], tissue Blood, route gavage, dose level Middle, time 14 day
Lab book: enter the figure in %, no units written.

Some solved entries appear below for comparison.
>>> result_value("CC(C)(S)[C@@H](N)C(=O)O")
43.5
>>> result_value("CCN1CCCC1CNC(=O)c1cc(S(N)(=O)=O)ccc1OC (centres undefined) [SULPIRIDE]")
44.1
>>> result_value("O=C(O)c1cccnc1")
42.2

Here is another molecule to look at.
Give the reported Ht for this molecule. O=C(N[C@H](CO)[C@H](O)c1ccc([N+](=O)[O-])cc1)C(Cl)Cl
43.7
